- System: Plasmodium vinckei petteri
- Experiment: Antimalarial activity against Plasmodium vinckei petteri 279BY infected in ip dosed Swiss mouse assessed as reduction in parasitemia administered QD for 4 days measured on day 5
- Type: functional
Endpoint: ED50 (mg/kg)
# value in mg/kg; strip the unit string

# annotated cases, reported ED50 shown
Cc1c(CCO)sc[n+]1CCCCCCCCCCCC[n+]1csc(CCO)c1C.[Br-].[Br-] [ALBITIAZOLIUM BROMIDE]: 0.2
CCN(CC)CCCC(C)Nc1ccnc2cc(Cl)ccc12 (stereo not drawn): 1.1

// below: ED50 requested for another molecule
Data point: C/C1=C(\CCOC(=O)[C@@H](N)C(C)C)SS/C(CCOC(=O)[C@@H](N)C(C)C)=C(/C)N(C=O)CCCCCCCCCCCCN1C=O.Cl ; ED50 = 1
